Value source: patent US20160257732A1

Entries and their Neutralization IC50, H3-Wy03 values follow.
Biological target: HA of A/Wyoming/03/03 (H3N2) (influenza A virus)
Assay: cell-based or functional assay
# number only, unit µg/mL dropped from output

binder="Antibody 5 (antibody, V domains shown) VH: QVQLQQSGPGLVKPSQTLSLTCAISGDRVSSNSAVWNWIRQSPSRGLEWLGRTYYRSKWYYDYAESVKSRIVIDPDTSKNQVSLQLNSVTPEDSAIYYCARGGHITVFGLNIDAYDIWGQGAMVTVSS VL: DIQMTQSPSSLSASVGDRVTISCRAQSLSSYLHWYQQKPGQPPKLLIYAATTLQSGVPSRFSGSGSGTDFTLTISTFQAEDVATYYCQQSRTFGQGTKVEIK" meas_value=0.77

Then there is this binder:
Exercise: // returns reported Neutralization IC50, H3-Wy03 for input Antibody 3 (antibody, V domains shown) VH: QVQLQESGPGLVKPSQTLSLTCAISGDSVSSNNAVWNWIRQSPSRGLEWLGRTYYRSKWYNDYAESVKSRITVNPDTSKNQFSLHLKSVTPEDTAVFYCVRSGHITVFGVNVDAFDMWGQGTMVTVSS VL: DIQMTQSPSSLSASVGDRVTITCRTSQSLSSYLHWYQQKPGKAPKLLIYAASSLQSGVPSRFSGSGSGTDFTLTISSLQPEDFATYYCQQSRTFGQGTKVEIK
Solution: 0.63
